Target Or Test System: VAMP8
Method Summary: pooled miR-30 sensor sort-seq; sequence = guide strand; also: reference of the scale not given here
Recorded Conditions: shRNA
Give measured sensor-assay potency score (higher = more potent) for each item. Keep answers brief.

Form field: sensor-assay potency score (higher = more potent) recorded for TAATATTCTTAACTCCCTCCAC with VAMP8 (enter value)
0.103

Form field: sensor-assay potency score (higher = more potent) recorded for TCTTCCACCAGAATTTTCGAGC with VAMP8 (enter value)
-0.564

Form field: sensor-assay potency score (higher = more potent) recorded for TTTCGAGCCACCTTCTGCGATG with VAMP8 (enter value)
-0.89

---

Target Or Test System: DNAL4
Method Summary: pooled miR-30 sensor sort-seq; sequence = guide strand
Recorded Conditions: shRNA
Readout: sensor-assay potency score (higher = more potent)

Form field: sensor-assay potency score (higher = more potent) recorded for TTGTCTCTTTGATCATCTTGGC with DNAL4 (enter value)
-0.232

Form field: sensor-assay potency score (higher = more potent) recorded for TCTTTGATCATCTTGGCGGCGC with DNAL4 (enter value)
-0.0929

Form field: sensor-assay potency score (higher = more potent) recorded for TCTGCAGTCGCTTATAATCAGC with DNAL4 (enter value)
-1.4

Form field: sensor-assay potency score (higher = more potent) recorded for ACTTCTTGTCCATTGTCTCTTT with DNAL4 (enter value)
-0.545

Form field: sensor-assay potency score (higher = more potent) recorded for ATAATCAGCCTCATCTTTCTTC with DNAL4 (enter value)
0.738

Form field: sensor-assay potency score (higher = more potent) recorded for TCGTGGGTGATCTCAAACCCAA with DNAL4 (enter value)
-1.47

Form field: sensor-assay potency score (higher = more potent) recorded for TAGAGGAGGTTCTTCACCTCGT with DNAL4 (enter value)
0.0799

---

Target Or Test System: MEX3D
Method Summary: pooled miR-30 sensor sort-seq; sequence = guide strand
Recorded Conditions: shRNA
Readout: sensor-assay potency score (higher = more potent)
No unit in the answer, please; the number alone is enough.

Form field: sensor-assay potency score (higher = more potent) recorded for AGGAAGTCGAAGTCGAAGCCGA with MEX3D (enter value)
-1.39

Form field: sensor-assay potency score (higher = more potent) recorded for TAGGTGTTTGTCTTGGCCCGCA with MEX3D (enter value)
0.155

Form field: sensor-assay potency score (higher = more potent) recorded for TTGATCTTGCAGCCCTGGCGAC with MEX3D (enter value)
-1.24

Form field: sensor-assay potency score (higher = more potent) recorded for TTGATGTAGGTGTTTGTCTTGG with MEX3D (enter value)
-0.318

Form field: sensor-assay potency score (higher = more potent) recorded for AAGTCGAAGCCGAAGTCGCAGT with MEX3D (enter value)
-0.692

Form field: sensor-assay potency score (higher = more potent) recorded for TGATGTAGGTGTTTGTCTTGGC with MEX3D (enter value)
0.554

---

Target Or Test System: EPHX2
Method Summary: pooled miR-30 sensor sort-seq; sequence = guide strand
Recorded Conditions: shRNA
Readout: sensor-assay potency score (higher = more potent)

What value of sensor-assay potency score (higher = more potent) has been recorded for this entry: TTCTTTTATGGAGAAATTCTTG
-0.837

What value of sensor-assay potency score (higher = more potent) has been recorded for this entry: TCTCTCAGCACGGTCGTCCAGC
-0.771

What value of sensor-assay potency score (higher = more potent) has been recorded for this entry: TAGTGAATCCTTTCTTCCTGAG
-0.285

What value of sensor-assay potency score (higher = more potent) has been recorded for this entry: TTAGAGGACCTCTGAAACCAGA
-0.75

---

Target Or Test System: PGBD3
Method Summary: pooled miR-30 sensor sort-seq; sequence = guide strand
Recorded Conditions: shRNA
Readout: sensor-assay potency score (higher = more potent)
No unit in the answer, please; the number alone is enough.

What value of sensor-assay potency score (higher = more potent) has been recorded for this entry: TTTGGTGGTGCTGTAACTCTAC
0.653

What value of sensor-assay potency score (higher = more potent) has been recorded for this entry: TTTGGAACAAATTTCATGCATC
-0.293

What value of sensor-assay potency score (higher = more potent) has been recorded for this entry: TAAACGTAGATGGAACTTCATC
-1.36

What value of sensor-assay potency score (higher = more potent) has been recorded for this entry: TGCATTGTCAGCAACATGCAAA
-1.12

---

Target Or Test System: RAB28
Method Summary: pooled miR-30 sensor sort-seq; sequence = guide strand
Recorded Conditions: shRNA
Readout: sensor-assay potency score (higher = more potent)

What value of sensor-assay potency score (higher = more potent) has been recorded for this entry: TTTGTTTGTACTGTTTCCCAAA
-0.914

What value of sensor-assay potency score (higher = more potent) has been recorded for this entry: TAACAGTCCTTGACATAGGTTC
-0.143

What value of sensor-assay potency score (higher = more potent) has been recorded for this entry: TTGAAGGGTAACATTCAAGTTT
-0.65

---

Give measured sensor-assay potency score (higher = more potent) for each item. Keep answers brief.
Target Or Test System: MPDU1
Method Summary: pooled miR-30 sensor sort-seq; sequence = guide strand
Recorded Conditions: shRNA

Form field: sensor-assay potency score (higher = more potent) recorded for ATGCTGTAGACCATGGTCCCAG with MPDU1 (enter value)
-1.15

Form field: sensor-assay potency score (higher = more potent) recorded for TAATAGTACATGTACAGGGCTT with MPDU1 (enter value)
-0.0728

Form field: sensor-assay potency score (higher = more potent) recorded for TTTCTCAGGTAAAAGAATCGGC with MPDU1 (enter value)
0.459

Form field: sensor-assay potency score (higher = more potent) recorded for TTCCACTAAAAGAAAACCCTGG with MPDU1 (enter value)
0.439

Form field: sensor-assay potency score (higher = more potent) recorded for TCCTCTGTAGTGCATGACCAGG with MPDU1 (enter value)
-1.87

Form field: sensor-assay potency score (higher = more potent) recorded for TTACACAGCTGGAAATTGCTGC with MPDU1 (enter value)
0.224

Form field: sensor-assay potency score (higher = more potent) recorded for TAAAAGAATCGGCACGAGCAGC with MPDU1 (enter value)
-0.833

Form field: sensor-assay potency score (higher = more potent) recorded for TAGTGCATGACCAGGAAGCAGA with MPDU1 (enter value)
-0.943

Form field: sensor-assay potency score (higher = more potent) recorded for TTGGTCGTAGCATTTCTCAGGT with MPDU1 (enter value)
0.125

---

Target Or Test System: P2RY12
Method Summary: pooled miR-30 sensor sort-seq; sequence = guide strand
Recorded Conditions: shRNA
Readout: sensor-assay potency score (higher = more potent)
No unit in the answer, please; the number alone is enough.

Form field: sensor-assay potency score (higher = more potent) recorded for TTATTATTAACTTAGTTGCTTC with P2RY12 (enter value)
-0.642

Form field: sensor-assay potency score (higher = more potent) recorded for TTCTTGTCTCTCGGCTGCCTGT with P2RY12 (enter value)
-1.33

Form field: sensor-assay potency score (higher = more potent) recorded for ATTTGGGTCACCACCATCCTGT with P2RY12 (enter value)
-0.843

Form field: sensor-assay potency score (higher = more potent) recorded for TTTCATGCCAGACTAGACCGAA with P2RY12 (enter value)
-0.342

Form field: sensor-assay potency score (higher = more potent) recorded for TTATTAACTTAGTTGCTTCTTC with P2RY12 (enter value)
0.717

Form field: sensor-assay potency score (higher = more potent) recorded for TAATATTTTTACTTAGCGCTTT with P2RY12 (enter value)
0.117

---

Target Or Test System: FHOD1
Method Summary: pooled miR-30 sensor sort-seq; sequence = guide strand
Recorded Conditions: shRNA
Readout: sensor-assay potency score (higher = more potent)

What value of sensor-assay potency score (higher = more potent) has been recorded for this entry: TTCTTCGATGTCTCCATCCTCC
-0.285

What value of sensor-assay potency score (higher = more potent) has been recorded for this entry: ATGACTGTCAGCATCTCCCCGG
-0.753

What value of sensor-assay potency score (higher = more potent) has been recorded for this entry: TCTGTCTCGGTGATCATGCGTC
-0.332

What value of sensor-assay potency score (higher = more potent) has been recorded for this entry: TACAAACACCAACAGCAGCTTC
-0.751

What value of sensor-assay potency score (higher = more potent) has been recorded for this entry: TCGTAGAGCACAAGCTGCGTGC
-0.434

---

Target Or Test System: ELF2
Method Summary: pooled miR-30 sensor sort-seq; sequence = guide strand
Recorded Conditions: shRNA
Readout: sensor-assay potency score (higher = more potent)
No unit in the answer, please; the number alone is enough.

What value of sensor-assay potency score (higher = more potent) has been recorded for this entry: TTTCACTTTTGTCATCATCTAT
-0.516

What value of sensor-assay potency score (higher = more potent) has been recorded for this entry: TGATATTCACAACTCTAGCTAC
-0.607

What value of sensor-assay potency score (higher = more potent) has been recorded for this entry: TTGAACTGATATACAAGCCTCT
0.343

What value of sensor-assay potency score (higher = more potent) has been recorded for this entry: TAATCTGGCACTTGGAACTGGC
-0.333

What value of sensor-assay potency score (higher = more potent) has been recorded for this entry: TTTCACATCATGTTCTTGCTTT
0.568
